This listing pairs molecules with measured IC50.
target: full length AKT E17K (Homo sapiens, UniProt P31749, E17K); construct: host or cells: HEK-293 (ATCC CRL-1573); assay: NanoBRET Target Engagement (TE) Assay; type: cell-based; details: competitive displacement of tracer in cells, read-out: AKT1 E17K IC50
Sequence (P31749 whole entry E17K): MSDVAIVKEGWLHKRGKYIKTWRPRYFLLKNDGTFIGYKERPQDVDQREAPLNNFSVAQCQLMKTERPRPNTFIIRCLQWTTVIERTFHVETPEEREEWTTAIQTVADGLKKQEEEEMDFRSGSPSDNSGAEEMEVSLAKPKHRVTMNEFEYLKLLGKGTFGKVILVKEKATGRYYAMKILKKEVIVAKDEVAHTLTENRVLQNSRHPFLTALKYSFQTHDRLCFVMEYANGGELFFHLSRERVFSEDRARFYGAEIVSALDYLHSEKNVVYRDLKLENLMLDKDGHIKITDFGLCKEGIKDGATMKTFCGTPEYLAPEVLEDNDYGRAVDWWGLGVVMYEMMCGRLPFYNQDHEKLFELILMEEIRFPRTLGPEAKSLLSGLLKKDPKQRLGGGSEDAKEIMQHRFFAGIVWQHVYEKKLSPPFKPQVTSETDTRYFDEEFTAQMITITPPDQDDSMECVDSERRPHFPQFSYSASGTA

Q: So what's the measured IC50 for this one? N#Cc1nccc(NC2CCN(Cc3ccc(-n4c(-c5cccnc5N)nc5ccc(-c6cccnc6C#N)nc54)cc3)CC2)n1 [Example 409]
Result: < 15 nM

Q: Param item: N#Cc1nccc(NC2CCN(Cc3ccc(-n4c(-c5nccnc5N)nc5ccc(-c6cn(CF)nn6)nc54)cc3)CC2)n1 [Example 628]
Result: < 15 nM

Q: Param item: [2H]C([2H])(c1ccc(-n2c(-c3cccnc3N)nc3cc(C)c(C)nc32)cc1)N1CCC(Nc2ccnc(C#N)n2)CC1 [Example 504]
Result: < 15 nM

Q: Param item: N#Cc1nccc(N2CCN(Cc3ccc(-n4c(-c5cccnc5N)nc5ccc(-c6ccc(=O)[nH]c6)nc54)cc3)CC2)n1 [Example 332]
Result: 600 to 10000 nM

Q: Param item: Cn1cnnc1-c1ccc2nc(-c3cccnc3N)n(-c3ccc(CN4CCC(Nc5ccnc(C#N)n5)CC4)cc3)c2n1 [Example 569]
Result: 60 to 600 nM

Let us examine a further case.
Q: So what's the measured IC50 for this one? Cc1nn(C)nc1-c1ccc2nc(-c3nccnc3N)n(-c3ccc(CN4CCC(Nc5ccnc(C#N)n5)CC4)cc3)c2n1 [Example 635]
Result: 15 to 60 nM

====

biological target: full length AKT E17K (Homo sapiens, UniProt P31749, E17K); construct: host or cells: HEK-293 (ATCC CRL-1573); experiment: NanoBRET Target Engagement (TE) Assay; format: cell-based; conditions: competitive tracer displacement in living cells, read-out: AKT1 E17K IC50
pIC50: −log10 of the molar value.
This listing pairs compounds with measured pIC50.

Solved entries (count: 8):
Q: So what's the measured pIC50 for this one? N#Cc1ccnc(N2CCN(Cc3ccc(-n4c(-c5cccnc5N)nc5cccnc54)cc3)CC2)n1 [Example 20]
Result: 5.00 to 6.22

Q: Param item: N#Cc1cccc(OC2CCN(Cc3ccc(-n4c(-c5cccnc5N)nc5cccnc54)cc3)CC2)n1 [Example 4]
Result: 5.00 to 6.22

Q: Param item: N#Cc1cc(NCc2ccc(-n3c(-c4cccnc4N)nc4cccnc43)cc2)ccn1 [Example 127]
Result: 5.00 to 6.22

Q: Param item: N#Cc1nc2cc(C(=O)N3CCN(Cc4ccc(-n5c(-c6cccnc6N)nc6ccc(-c7ccccc7)nc65)cc4)CC3)ccc2s1 [Example 184]
Result: > 7.82

Q: Param item: N#Cc1nccc(C(=O)N2CCN(Cc3ccc(-n4c(-c5cccnc5N)nc5ccc(-c6ccccc6)nc54)cc3)CC2)n1 [Example 141]
Result: > 7.82

Q: Param item: N#Cc1nccc(NC2CCN(Cc3ccc(-n4c(-c5cccnc5N)nc5ccc(C6CC6)nc54)cc3)CC2)n1 [Example 298]
Result: > 7.82

Q: Param item: N#Cc1ncnc(N2CC3(CN(Cc4ccc(-n5c(-c6cccnc6N)nc6ccc(-c7ccccc7)nc65)cc4)C3)C2)n1 [Example 303]
Result: > 7.82

Q: Param item: N#Cc1ccnc(N2C3CCC2CN(Cc2ccc(-n4c(-c5cccnc5N)nc5ccc(-c6ccccc6)nc54)cc2)C3)n1 [Example 204]
Result: 5.00 to 6.22

New cases:
Q: So what's the measured pIC50 for this one? N#Cc1nccc(NC2CCN(Cc3ccc(-n4c(-c5cccnc5N)nc5ccc(C6CCC6)nc54)cc3)CC2)n1 [Example 262]
Result: > 7.82

Q: Param item: N#Cc1cccc(C(=O)NC2CCN(Cc3ccc(-n4c(-c5cccnc5N)nc5cccnc54)cc3)CC2)n1 [Example 30]
Result: 5.00 to 6.22

Q: Param item: N#Cc1cncc(NC2CCN(Cc3ccc(-n4c(-c5cccnc5N)nc5ccc(-c6ccccc6)nc54)cc3)CC2)c1 [Example 93]
Result: 6.22 to 7.22

Q: Param item: N#Cc1ccc(C(=O)NCc2ccc(-n3c(-c4cccnc4N)nc4cccnc43)cc2)nc1 [Example 124]
Result: 5.00 to 6.22

Q: Param item: N#Cc1ccncc1C(=O)NC1CCN(Cc2ccc(-n3c(-c4cccnc4N)nc4ccc(-c5ccccc5)nc43)cc2)CC1 [Example 60]
Result: > 7.82

Q: Param item: N#Cc1cccc(C(=O)NC2CCN(Cc3ccc(-n4c(-c5cccnc5N)nc5ccc(-c6ccccc6)nc54)cc3)CC2)n1 [Example 56]
Result: > 7.82
